Quick note: these are IC50 numbers for system: Hematopoietic prostaglandin D synthase (Homo sapiens, UniProt O60760)
Sequence (O60760 whole entry): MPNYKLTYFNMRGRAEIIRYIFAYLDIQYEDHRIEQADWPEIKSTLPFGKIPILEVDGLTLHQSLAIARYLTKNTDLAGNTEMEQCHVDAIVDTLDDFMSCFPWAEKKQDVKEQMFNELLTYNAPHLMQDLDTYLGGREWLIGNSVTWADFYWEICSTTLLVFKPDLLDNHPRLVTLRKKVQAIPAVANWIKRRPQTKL
Report the value in µM with no unit label.

Ask: Lab request: please report IC50 under test system Hematopoietic prostaglandin D synthase (Homo sapiens, UniProt O60760) for O=C1OC(c2ccc(O)c(S(=O)(=O)O)c2)(c2ccc(O)c(S(=O)(=O)O)c2)c2c(Br)c(Br)c(Br)c(Br)c21 [SULFOBROMOPHTHALEIN]
Reply: 27

Ask: # iterate: C=C(CC)C(=O)c1ccc(OCC(=O)O)c(Cl)c1Cl [ETHACRYNIC ACID]
Reply: 122

* * *

study system: Hematopoietic prostaglandin D synthase (Homo sapiens, UniProt O60760)
method notes: Inhibition of human H-PGDS expressed in Escherichia coli BL21 assessed as rate of glutathione-chloro-dinitro benzene conjugation at 50 uM
Answer rule not met if inhibition is under 5%, and rule met if it is 5% or more.

Example entries and their recorded answers appear below.
[[record]]
compound = "CC1(C)Cc2c(-c3ccccc3)c(-c3ccc(Cl)cc3)c(CC(=O)O)n2C1"
assigned_class = "rule not met"

[[record]]
compound = "C=C(CC)C(=O)c1ccc(OCC(=O)O)c(Cl)c1Cl"
assigned_class = "rule met"

[[record]]
compound = "COC(=O)Nc1nc2cc(C(=O)c3cccs3)ccc2[nH]1"
assigned_class = "rule met"

[[record]]
compound = "O=C(O)Cc1ccccc1Nc1c(Cl)cccc1Cl"
assigned_class = "rule not met"

[[record]]
compound = "O=C(O)c1cc(/N=N/c2ccc(S(=O)(=O)Nc3ccccn3)cc2)ccc1O"
assigned_class = "rule not met"

[[record]]
compound = "COc1ccc2c(c1)c(CC(=O)O)c(C)n2C(=O)c1ccc(Cl)cc1"
assigned_class = "rule not met"


Ask: Quick check, inhibition >= 5%? COc1ccc(C(=O)c2cccs2)cc1
Reply: rule met

Ask: # repeat for O=C(O)COc1ccc(C(=O)c2cccs2)c(Cl)c1Cl
Reply: rule not met

Ask: COC(=O)Nc1nc2cc([S+]([O-])c3ccccc3)ccc2[nH]1 (stereo not drawn) ?
Reply: rule not met

Ask: Follow-up item: c1ccc(C(OC2CCN(CCCc3nnn[nH]3)CC2)c2ccccc2)cc1
Reply: rule met

Ask: Then O=C(O)CCn1c2c(c3ccccc31)C[C@H](NS(=O)(=O)c1ccc(F)cc1)CC2 ?
Reply: rule not met

Ask: Another: O=C(c1ccccc1)c1cccs1
Reply: rule met

Ask: Queued: O=C(O)CCCCCC[C@H]1C(=O)NC(=O)N1CCC(O)C1CCCCC1 (stereo partly drawn)
Reply: rule met

Ask: Queued: O=C1OC(c2ccc(O)c(S(=O)(=O)O)c2)(c2ccc(O)c(S(=O)(=O)O)c2)c2c(Br)c(Br)c(Br)c(Br)c21
Reply: rule met

Ask: How about this compound: Nc1c(S(=O)(=O)O)cc(Nc2ccc(Nc3nc(Cl)nc(Nc4ccccc4S(=O)(=O)O)n3)c(S(=O)(=O)O)c2)c2c1C(=O)c1ccccc1C2=O
Reply: rule met

Ask: // query: O=C(Nc1ccccc1)Nc1cccc(C(=O)O)c1
Reply: rule met

Ask: Request: Cc1cc(CC(=O)O)n(C)c1C(=O)c1ccc(Cl)cc1
Reply: rule not met

Sourced from ChEMBL document CHEMBL1154723
